Tested on: MDA-MB-231 cells
Assay: Cell validation: cytotoxicity in MDA-MB-231 cells (CellTiter-Glo)
Format: cell-based
Settings: 72 hr
Readout kind: cytotoxicity on MDA-MB-231 cells (in words)

{"Compound": "CCN1CCN(C(=O)COc2ccc(/C=c3\\sc4n(c3=O)C(c3ccc(Cl)cc3)C(C(=O)OC(C)C)=C(C)N=4)cc2)CC1 (stereo not shown)", "Measured": "showed cytotoxicity"}
{"Compound": "CC1=C(C(=O)OC(C)C)C(c2ccc(Cl)cc2)n2c(s/c(=C\\c3ccc(OCC(=O)N4CCN(C)CC4)cc3)c2=O)=N1 (stereo not shown)", "Measured": "showed cytotoxicity"}
{"Compound": "CCN1CCN(C(=O)COc2ccc(/C=c3\\sc4n(c3=O)C(c3ccc(Cl)cc3)C(C(=O)OC(C)C)=C(C)N=4)cc2)CC1.O=C(O)/C=C\\C(=O)O (stereo not shown)", "Measured": "showed cytotoxicity"}
